SYSTEM NAME: Hap1 (UniProt P0CE41)
Sequence (P0CE41 whole entry): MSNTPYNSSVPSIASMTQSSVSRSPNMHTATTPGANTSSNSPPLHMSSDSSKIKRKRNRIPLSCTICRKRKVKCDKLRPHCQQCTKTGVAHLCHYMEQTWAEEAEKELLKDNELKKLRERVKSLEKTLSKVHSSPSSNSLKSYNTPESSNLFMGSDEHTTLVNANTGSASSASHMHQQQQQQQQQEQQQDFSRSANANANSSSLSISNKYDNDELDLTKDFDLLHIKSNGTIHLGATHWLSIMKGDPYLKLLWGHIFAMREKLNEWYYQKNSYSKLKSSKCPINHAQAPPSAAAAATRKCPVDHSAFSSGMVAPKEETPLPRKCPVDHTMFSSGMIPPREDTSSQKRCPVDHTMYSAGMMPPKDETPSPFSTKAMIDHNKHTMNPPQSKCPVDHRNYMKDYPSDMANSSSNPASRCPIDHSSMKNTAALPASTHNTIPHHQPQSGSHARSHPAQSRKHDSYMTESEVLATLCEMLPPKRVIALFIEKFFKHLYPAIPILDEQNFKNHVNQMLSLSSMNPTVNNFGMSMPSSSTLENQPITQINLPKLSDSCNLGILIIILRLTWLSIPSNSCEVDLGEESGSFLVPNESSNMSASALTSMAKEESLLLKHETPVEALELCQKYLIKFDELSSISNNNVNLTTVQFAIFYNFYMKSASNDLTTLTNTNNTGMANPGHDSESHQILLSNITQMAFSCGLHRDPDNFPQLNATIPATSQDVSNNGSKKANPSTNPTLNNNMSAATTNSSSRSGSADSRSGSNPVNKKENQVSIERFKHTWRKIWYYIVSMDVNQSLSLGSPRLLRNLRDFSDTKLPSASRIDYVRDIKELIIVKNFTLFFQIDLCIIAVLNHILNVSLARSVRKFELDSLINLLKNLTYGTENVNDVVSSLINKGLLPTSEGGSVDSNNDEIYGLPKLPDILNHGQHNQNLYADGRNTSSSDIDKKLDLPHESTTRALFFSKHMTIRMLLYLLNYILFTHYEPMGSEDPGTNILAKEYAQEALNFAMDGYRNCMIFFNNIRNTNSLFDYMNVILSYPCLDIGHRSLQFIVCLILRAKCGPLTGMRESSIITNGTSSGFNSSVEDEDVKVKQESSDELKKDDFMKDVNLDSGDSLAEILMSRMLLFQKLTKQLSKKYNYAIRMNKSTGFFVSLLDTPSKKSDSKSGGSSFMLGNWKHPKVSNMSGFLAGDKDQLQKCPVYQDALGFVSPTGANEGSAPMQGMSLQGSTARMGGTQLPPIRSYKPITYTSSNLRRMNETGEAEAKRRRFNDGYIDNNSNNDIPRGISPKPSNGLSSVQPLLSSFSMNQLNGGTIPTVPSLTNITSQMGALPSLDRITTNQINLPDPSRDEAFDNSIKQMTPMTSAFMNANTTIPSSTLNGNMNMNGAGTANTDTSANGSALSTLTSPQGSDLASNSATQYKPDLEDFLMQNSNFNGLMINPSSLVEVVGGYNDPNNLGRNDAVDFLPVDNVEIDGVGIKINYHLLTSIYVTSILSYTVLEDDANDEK
ASSAY EXPLANATION: PBM E-score (8-mer binding enrichment) (E-score (-0.5 to 0.5)); higher = stronger / more preferred TF binding
COND: protein concentration: 200 nM; construct: GST-DNA-binding domain
Over roughly 33,000 sequences, “E-score (-0.5 to 0.5)” has its median near -0.053; the highest 2% begin near 0.37. The sample holds the highest values, similar sequences and a random draw of the others, so the mix is not that of the screen.
Answer each item with its documented PBM E-score.

// each listed sequence needs a value for PBM E-score
1. AATCGGCT
2. TAGAGCAA
3. TGTCCAAA
4. CCTATCAG

Ans:
[0.314, -0.296, -0.133, -0.147]

====

SYSTEM NAME: Hap1 (UniProt P0CE41)
ASSAY EXPLANATION: PBM E-score (8-mer binding enrichment) (E-score (-0.5 to 0.5)); higher = stronger / more preferred TF binding
COND: protein concentration: 200 nM; construct: GST-DNA-binding domain
Whole data set: some 33,000 sequences, median “E-score (-0.5 to 0.5)” near -0.053, cut for the highest 2% near 0.37. For the sample, the highest values were picked, then their nearest neighbours and some sequences at random.
Answer each item with its documented PBM E-score.

Worked set:
SEQ TEXT: GTACCGTA
MEASURED RESULT: 0.0486
//
SEQ TEXT: ACGTCCGG
MEASURED RESULT: 0.411

In the following, a different sequence is considered.
Q: Short answer please: PBM E-score, Hap1 (UniProt P0CE41), entry ACGTCCGC
Ans: 0.357

====

SYSTEM NAME: Hap1 (UniProt P0CE41)
ASSAY EXPLANATION: PBM E-score (8-mer binding enrichment) (E-score (-0.5 to 0.5)); higher = stronger / more preferred TF binding
COND: protein concentration: 200 nM; construct: GST-DNA-binding domain
In all, about 33,000 sequences were measured (“E-score (-0.5 to 0.5)”: median about -0.053, highest 2% from about 0.37 on). The entries come from a sample that favours the highest values as a whole.
MEASURED ENDPOINT: PBM E-score
Give bare numbers.

Worked set:
SEQ TEXT: ACGGAGAT
SYSTEM NAME: Hap1 (UniProt P0CE41)
PBM E-score: 0.445
//
SEQ TEXT: CTACTAAC
SYSTEM NAME: Hap1 (UniProt P0CE41)
PBM E-score: -0.214
//
SEQ TEXT: CGAGATAC
SYSTEM NAME: Hap1 (UniProt P0CE41)
PBM E-score: 0.188
//
SEQ TEXT: GTCCGAGA
SYSTEM NAME: Hap1 (UniProt P0CE41)
PBM E-score: 0.437
//
SEQ TEXT: GCTCCTAC
SYSTEM NAME: Hap1 (UniProt P0CE41)
PBM E-score: -0.0888
//
SEQ TEXT: AGGCCGTA
SYSTEM NAME: Hap1 (UniProt P0CE41)
PBM E-score: 0.0497
//
SEQ TEXT: CGCCGGCG
SYSTEM NAME: Hap1 (UniProt P0CE41)
PBM E-score: 0.422
//
SEQ TEXT: GGATATAA
SYSTEM NAME: Hap1 (UniProt P0CE41)
PBM E-score: 0.382
//
SEQ TEXT: AGGCCGGC
SYSTEM NAME: Hap1 (UniProt P0CE41)
PBM E-score: 0.271
//
SEQ TEXT: AATCACAT
SYSTEM NAME: Hap1 (UniProt P0CE41)
PBM E-score: 0.0324

// each listed sequence needs a value for PBM E-score
1. CGGCCGGC
2. ACGGAGAC
3. ATCGGAAG

Ans:
0.422
0.285
0.236

// each listed sequence needs a value for PBM E-score
1. AACGGGTG
2. AGGGAATA
3. AATGGTGT
4. AGCCGATG
5. AGAGATAC
6. GTATCCCA

Ans:
0.29
0.127
-0.0527
0.233
-0.0992
-0.135

====

Answer each item with its documented PBM E-score.
SYSTEM NAME: Hap1 (UniProt P0CE41)
ASSAY EXPLANATION: PBM E-score (8-mer binding enrichment) (E-score (-0.5 to 0.5)); higher = stronger / more preferred TF binding
COND: protein concentration: 200 nM; construct: GST-DNA-binding domain
In all, about 33,000 sequences were measured (“E-score (-0.5 to 0.5)”: median about -0.053, highest 2% from about 0.37 on). The list comes from a sample in which the highest values are over-represented; it also holds close analogues and randomly drawn sequences.
Numbers only.

SEQ TEXT: TGCTCAAA
PBM E-score: -0.145
//
SEQ TEXT: AGACCTTA
PBM E-score: -0.154
//
SEQ TEXT: ACCGGATA
PBM E-score: 0.359
//
SEQ TEXT: CAGCATTC
PBM E-score: -0.162
//
SEQ TEXT: CCGTTATA
PBM E-score: 0.311
//
SEQ TEXT: CGCGAGCG
PBM E-score: 0.104
//
SEQ TEXT: AGAGGAAT
PBM E-score: -0.205
//
SEQ TEXT: CCCCGACG
PBM E-score: 0.379

// each listed sequence needs a value for PBM E-score
1. CGAGAAAC
2. CCGGGACG
3. CCGGCAAC

Ans:
1: 0.187; 2: 0.199; 3: 0.373

// each listed sequence needs a value for PBM E-score
1. CCGTTATC
2. CACGGACG

Ans:
1. 0.385
2. 0.331

====

Answer each item with its documented PBM E-score.
SYSTEM NAME: Hap1 (UniProt P0CE41)
ASSAY EXPLANATION: PBM E-score (8-mer binding enrichment) (E-score (-0.5 to 0.5)); higher = stronger / more preferred TF binding
COND: protein concentration: 200 nM; construct: GST-DNA-binding domain
The full ranking holds about 33,000 sequences; the median of “E-score (-0.5 to 0.5)” is about -0.053, and the highest 2% start at about 0.37. What follows is part of a selection rich in the highest values, with near analogues and random picks from the rest.
Give bare numbers.

// each listed sequence needs a value for PBM E-score
1. GATCCGAA
2. GTGTCCCA
3. CCATTCAA
4. CTCCTAAC
5. GGATCGAC

Ans:
1. 0.379
2. 0.0086
3. -0.16
4. -0.191
5. 0.17

// each listed sequence needs a value for PBM E-score
1. AATCCGCA
2. ACTCCGTC

Ans:
[0.247, 0.3]

// each listed sequence needs a value for PBM E-score
1. AAAGTCCT
2. CCAATCTC
3. GTCGAAAA
4. GATCCGAC
5. CGAGGGCA
6. ATCAAGAG
7. ACTCCGGC

Ans:
1: 0.157; 2: 0.00791; 3: -0.0295; 4: 0.273; 5: -0.00305; 6: -0.172; 7: 0.389

// each listed sequence needs a value for PBM E-score
1. GATCCGGC
2. AGGAAACA
3. ACTCCGCC
4. AGAATTAC
5. AGTCGGTA
6. TGAATTAA

Ans:
[0.375, -0.0825, 0.306, 0.0991, 0.0714, -0.0149]

====

SYSTEM NAME: Hap1 (UniProt P0CE41)
ASSAY EXPLANATION: PBM E-score (8-mer binding enrichment) (E-score (-0.5 to 0.5)); higher = stronger / more preferred TF binding
COND: protein concentration: 200 nM; construct: GST-DNA-binding domain
The full ranking holds about 33,000 sequences; the median of “E-score (-0.5 to 0.5)” is about -0.053, and the highest 2% start at about 0.37. Only a selection was taken, and the highest values are over-represented in it overall.
PBM E-score below 0.3 gives Not met; PBM E-score at or above it gives Met.

Example entries begin here.
SEQ TEXT: ATGATCCC
SYSTEM NAME: Hap1 (UniProt P0CE41)
CLASS: Not met

SEQ TEXT: TGGAGCAA
SYSTEM NAME: Hap1 (UniProt P0CE41)
CLASS: Not met

SEQ TEXT: CGGAGCTA
SYSTEM NAME: Hap1 (UniProt P0CE41)
CLASS: Met

Q: Please indicate if the recorded PBM E-score for AACTCGGC meets or exceeds 0.3.
Ans: Met

Q: Please indicate if the recorded PBM E-score for CAGCCGAG meets or exceeds 0.3.
Ans: Not met

====

SYSTEM NAME: Hap1 (UniProt P0CE41)
ASSAY EXPLANATION: PBM E-score (8-mer binding enrichment) (E-score (-0.5 to 0.5)); higher = stronger / more preferred TF binding
COND: protein concentration: 200 nM; construct: GST-DNA-binding domain
Over roughly 33,000 sequences, “E-score (-0.5 to 0.5)” has its median near -0.053; the highest 2% begin near 0.37. Only a selection was taken, and the highest values are over-represented in it overall.
Answer each item with its documented PBM E-score.
Answers are plain numbers.

Worked set:
SEQ TEXT: AAACCCCA
PBM E-score: -0.134
--
SEQ TEXT: ACTAGGTC
PBM E-score: -0.0578
--
SEQ TEXT: GCTCCGGA
PBM E-score: 0.444
--
SEQ TEXT: ACAAACGA
PBM E-score: -0.145

// each listed sequence needs a value for PBM E-score
1. ACCCGATC
2. CCGGTAAA
3. AAAGCCGT

Ans:
1. 0.244
2. 0.456
3. 0.322
